experiment: recombinant barcode read abundance after kanamycin selection (control-corrected) (log10(CPM+1)); higher = more efficient recombination; sequences stand for … in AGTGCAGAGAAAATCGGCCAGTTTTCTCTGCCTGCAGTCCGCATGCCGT…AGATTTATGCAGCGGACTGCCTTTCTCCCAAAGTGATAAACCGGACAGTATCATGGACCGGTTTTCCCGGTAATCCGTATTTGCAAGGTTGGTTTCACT; site = the 11-nt target
Some sequences, each annotated with its measured recombinant barcode read abundance (log10).
Just the number.

Please review the following examples before continuing.
AGCTAACCTTGGGTTCTAACCTGTTGCCT (site AGCTAACCTAG) :: 0.407
CACGCTTCTTGGGTTCTAACCTGTTGCTA (site CACGCGTCTCA) :: 0.0477
GCCCTGCCTTGGGTTCTAACCTGTTGCGT (site TACCTGCCTAC) :: 0.133
GGGTCCACTTGGGTTCTAACCTGTTGCTT (site GGGTCCACTAC) :: 0.139

Can you look up the measured recombinant barcode read abundance (log10) of AGTCGACCTTGGGTTCTAACCTGTTGCCT (site TGTCGACCTAG) for me?
0.143

* * *

assay: recombinant UMI read abundance after kanamycin selection (control-corrected) (log10(CPM+1)); higher = more efficient recombination; extreme values may be limits of the assay; sequences stand for … in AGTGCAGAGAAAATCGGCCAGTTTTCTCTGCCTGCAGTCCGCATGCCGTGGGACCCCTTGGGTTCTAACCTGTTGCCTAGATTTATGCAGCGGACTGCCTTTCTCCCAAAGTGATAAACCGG…AGGTTGGTTTCACT; site = the 11-nt donor
metric name: recombinant UMI read abundance (log10)

Please review the following examples before continuing.
AATTATGCATGGACCGGTTTTCCCGGTAATCCGTATTTGGG (site AATTATGCTCC) :: 0.388
AGCTAAGCATGGACCGGTTTTCCCGGTAATCCGTATTTGGG (site AGCTAAGCTCC) :: 0.00725
ATCCGTCCATGGACCGGTTTTCCCGGTAATCCGTATTTGAT (site AACCGTCCTAT) :: 0.00762
CGGACATCATGGACCGGTTTTCCCGGTAATCCGTATTTGCA (site CGGACATCTGG) :: 0
TCAAAGACATGGACCGGTTTTCCCGGTAATCCGTATTTGCG (site TCAAAGACTCG) :: 1.9

Can you look up the measured recombinant UMI read abundance (log10) of GGGACACCATGGACCGGTTTTCCCGGTAATCCGTATTTGCA (site GGGTCACCTTG) for me?
0

Can you look up the measured recombinant UMI read abundance (log10) of GGTTTGGCATGGACCGGTTTTCCCGGTAATCCGTATTTGCT (site GGTTTGGCTAG) for me?
0

Can you look up the measured recombinant UMI read abundance (log10) of CGCACTCCATGGACCGGTTTTCCCGGTAATCCGTATTTGTT (site CGCACTCCTAA) for me?
0.808

Can you look up the measured recombinant UMI read abundance (log10) of GGAGTATCATGGACCGGTTTTCCCGGTAATCCGTATTTGAC (site CTAGTATCTGT) for me?
0

Can you look up the measured recombinant UMI read abundance (log10) of TAAATAACATGGACCGGTTTTCCCGGTAATCCGTATTTGCT (site TAAATAACTAG) for me?
0

Can you look up the measured recombinant UMI read abundance (log10) of TCGCAGCCATGGACCGGTTTTCCCGGTAATCCGTATTTGGA (site AAAGTCTCTCG) for me?
0

Can you look up the measured recombinant UMI read abundance (log10) of CGGGGCGCATGGACCGGTTTTCCCGGTAATCCGTATTTGGC (site CGGGGCGCTGC) for me?
3.06

Can you look up the measured recombinant UMI read abundance (log10) of GAGCCGGCATGGACCGGTTTTCCCGGTAATCCGTATTTGGT (site GAGCCGGCTAC) for me?
0.57

Can you look up the measured recombinant UMI read abundance (log10) of CAAGCGCCATGGACCGGTTTTCCCGGTAATCCGTATTTGTT (site CAAGCGCCTCA) for me?
0.0113

Can you look up the measured recombinant UMI read abundance (log10) of TAGCCTTCATGGACCGGTTTTCCCGGTAATCCGTATTTGAT (site TAGCCTTCTAA) for me?
0.00922

Can you look up the measured recombinant UMI read abundance (log10) of CGATCCTCATGGACCGGTTTTCCCGGTAATCCGTATTTGCG (site CGATCATCTAG) for me?
0

Can you look up the measured recombinant UMI read abundance (log10) of TACATCCCATGGACCGGTTTTCCCGGTAATCCGTATTTGAG (site TACATCCCTCT) for me?
0.0123

Can you look up the measured recombinant UMI read abundance (log10) of TCCAATTCATGGACCGGTTTTCCCGGTAATCCGTATTTGCC (site TCCGATTCTGG) for me?
0
